Biological target: T1, pKal (Homo sapiens, UniProt P03952)
T1 construct: two disulfide linked polypeptides; a heavy chain of approximately 52 kDa and a catalytic domain of approximately 34 kDa; host or cells: human plasma
T1 sequence (P03952 391-638 limits assumed): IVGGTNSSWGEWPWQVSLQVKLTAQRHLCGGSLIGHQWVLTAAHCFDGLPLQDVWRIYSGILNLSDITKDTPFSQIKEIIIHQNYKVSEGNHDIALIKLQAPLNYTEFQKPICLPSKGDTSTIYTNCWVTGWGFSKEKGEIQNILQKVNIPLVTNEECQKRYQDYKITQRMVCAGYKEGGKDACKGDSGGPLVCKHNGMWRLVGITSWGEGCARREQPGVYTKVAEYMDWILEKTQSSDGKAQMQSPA
T1 sequence (P03952 20-390 partner limits assumed): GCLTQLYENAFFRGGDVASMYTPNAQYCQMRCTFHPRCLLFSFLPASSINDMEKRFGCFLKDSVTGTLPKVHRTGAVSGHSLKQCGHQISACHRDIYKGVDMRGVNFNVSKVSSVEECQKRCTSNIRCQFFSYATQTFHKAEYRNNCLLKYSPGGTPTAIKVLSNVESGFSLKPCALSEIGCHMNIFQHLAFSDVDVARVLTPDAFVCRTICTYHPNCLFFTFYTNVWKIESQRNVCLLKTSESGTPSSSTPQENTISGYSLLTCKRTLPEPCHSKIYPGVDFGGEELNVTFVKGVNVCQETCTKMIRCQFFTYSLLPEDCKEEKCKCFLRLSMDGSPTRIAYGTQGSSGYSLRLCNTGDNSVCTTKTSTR
Experiment: Fab fragments (small scale) tested for inhibition against human pKal in an in vitro protease cleavage assay
Format: biochemical
Settings: Table 9

Molecule	Inhibit as a Fab?
X67-B04: single point mutation of M142-H08 (P2); HV-CDR3 GGLLLWKRELKSNYFDY (antibody, V domains shown) VL: QDIQMTQSPSSLSAFVGDRVTITCRASQPIDNYLNWYHQKPGKAPKLLIYAASRLQSGVPSRLSGSGFGTDFTLTISSLQPEDFGNYYCQQSYTVPYTFGGGTKVEIR VH: EVQLLESGGGLVQPGGSLRLSCAASGFTFSAYSMIWVRQAPGKGLEWVSYIRPSGGRTTYADSVKGRFTISRDNSKNTLYLQMNSLRAEDTAVYYCARGGLLLWKRELKSNYFDYWGQGTLVTVSSASTKGPSVFPLAPSSKS	Yes
X66-A07: single point mutation of M142-H08 (P1); HV-CDR3 GGLLLWFKELKSNYFDY (antibody, V domains shown) VL: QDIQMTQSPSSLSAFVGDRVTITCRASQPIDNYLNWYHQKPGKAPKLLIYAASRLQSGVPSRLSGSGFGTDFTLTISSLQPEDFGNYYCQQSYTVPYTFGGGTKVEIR VH: EVQLLESGGGLVQPGGSLRLSCAASGFTFSAYSMIWVRQAPGKGLEWVSYIRPSGGRTTYADSVKGRFTISRDNSKNTLYLQMNSLRAEDTAVYYCARGGLLLWFKELKSNYFDYWGQGTLVTVSSASTKGPSVFPLAPSSKS	No
X68-G01: single point mutation of M142-H08 (P3); HV-CDR3 GGLLLRFRELKSNYFDY (antibody, V domains shown) VL: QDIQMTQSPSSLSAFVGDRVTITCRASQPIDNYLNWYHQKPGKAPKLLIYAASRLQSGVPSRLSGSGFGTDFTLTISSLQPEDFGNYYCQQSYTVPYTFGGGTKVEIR VH: EVQLLESGGGLVQPGGSLRLSCAASGFTFSAYSMIWVRQAPGKGLEWVSYIRPSGGRTTYADSVKGRFTISRDNSKNTLYLQMNSLRAEDTAVYYCARGGLLLRFRELKSNYFDYWGQGTLVTVSSASTKGPSVFPLAPSSKS	No
X69-D09: single point mutation of M142-H08 (P1′); HV-CDR3 GGLLLWFRGLKSNYFDY (antibody, V domains shown) VL: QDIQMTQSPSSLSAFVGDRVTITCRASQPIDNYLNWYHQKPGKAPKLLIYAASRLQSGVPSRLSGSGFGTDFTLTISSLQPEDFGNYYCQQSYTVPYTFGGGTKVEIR VH: EVQLLESGGGLVQPGGSLRLSCAASGFTFSAYSMIWVRQAPGKGLEWVSYIRPSGGRTTYADSVKGRFTISRDNSKNTLYLQMNSLRAEDTAVYYCARGGLLLWFRGLKSNYFDYWGQGTLVTVSSASTKGPSVFPLAPSSKS	Yes
